Where do the numbers come from? From patent US11376266B2.

- measurement.notes: Solubility test in pure water and saline (UV absorption at 238 nm)
- Format: physicochemical
- experimental.parameters: pure water, water, thermodynamic from solid; room temperature; PEGylated values calculated as sulfasalazine; read-out: Saturated solubility, pure water
reported.metric: solubility (µg/mL)
Write the value in µg/mL as a bare number.

Incoming: Sample "O=C(O)c1cc(/N=N/c2ccc(S(=O)(=O)Nc3ccccn3)cc2)ccc1O" — what was its solubility?
Outgoing: 50

----------
- measurement.notes: Solubility test in pure water and saline (UV absorption at 238 nm)
- Assay type: physicochemical
- experimental.parameters: saline, saline or isotonic, thermodynamic from solid; room temperature; PEGylated values calculated as sulfasalazine; read-out: Saturated solubility, saline
reported.metric: solubility (µg/mL)
Write the value in µg/mL as a bare number.

Incoming: Sample O=C(O)c1cc(/N=N/c2ccc(S(=O)(=O)Nc3ccccn3)cc2)ccc1O [Sulfasalazine] — what was its solubility?
Outgoing: 37
